target: T1, cynomolgus CD3e/d complex on cells transiently transfected with pcDNA3.1-CD3e/d-cyn-mix (cynomolgus, UniProt Q95LI5 22-198; Q95LI8 22-171)
T1 construct: Tagged screening constructs
T1 sequence (Q95LI5 22-198 limits assumed, chain 1 of 2): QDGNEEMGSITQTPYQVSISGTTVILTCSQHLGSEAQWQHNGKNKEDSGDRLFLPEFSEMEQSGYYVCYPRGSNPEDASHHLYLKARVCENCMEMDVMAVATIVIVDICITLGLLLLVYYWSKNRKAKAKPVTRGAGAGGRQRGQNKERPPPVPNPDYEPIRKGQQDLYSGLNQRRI
T1 sequence (Q95LI8 22-171 limits assumed, chain 2 of 2): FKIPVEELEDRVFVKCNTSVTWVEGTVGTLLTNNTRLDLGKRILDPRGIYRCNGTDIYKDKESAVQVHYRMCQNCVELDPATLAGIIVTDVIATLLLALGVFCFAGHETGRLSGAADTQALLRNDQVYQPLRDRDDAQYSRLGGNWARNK
measurement.notes: CELISA, hybridoma supernatant
measured.endpoint: Rfu
Answers without a unit are incomplete; give the number and then its unit.

Examples with their reported Rfu follow.
binder	Rfu
BLW-2E6 (antibody, V domains shown, OmniRat hybridoma supernatant: human V regions on rat constant regions; also called V regions cloned as CD3B312 (CD3H219/CD3L124)) VH: QVQLQQSGPRLVRPSQTLSLTCAISGDSVFNNNAAWSWIRQSPSRGLEWLGRTYYRSKWLYDYAVSVKSRITVNPDTSRNQFTLQLNSVTPEDTALYYCARGYSSSFDYWGQGTLVTVSS VL: QSALTQPASVSGSPGQSITISCTGTSSNIGTYKFVSWYQQHPDKAPKVLLYEVSKRPSGVSSRFSGSKSGNTASLTISGLQAEDQADYHCCSYAGSGTLLFGGGTKLTVL	121 rfu
BLX-3G8 (antibody, V domains shown, OmniRat hybridoma supernatant: human V regions on rat constant regions; also called V regions cloned as CD3B317 (CD3H223/CD3L124)) VH: QVQLQQSGPGLVKPSQTLSLTCAISGDSVFNNNAAWTWIRQSPSRGLEWLGRTYYRSKWLYDYAVSVKSRITVNPDTSRNQFTLQLKSVTPEDTALYYCSRGYSSSFDYWGQGTLVTVSS VL: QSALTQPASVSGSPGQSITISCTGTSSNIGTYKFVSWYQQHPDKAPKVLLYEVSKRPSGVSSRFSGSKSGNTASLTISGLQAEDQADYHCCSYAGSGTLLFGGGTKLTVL	340 rfu

Now for the binder whose Rfu we want.
Quickly give me recorded Rfu for BLW-2B4 (antibody, V domains shown, OmniRat hybridoma supernatant: human V regions on rat constant regions; also called V regions cloned as CD3B311 (CD3H218/CD3L123)) VH: QVQLQQSGPGLVKPSQTLSLTCAISGDSVFNNNAAWSWIRQSPSRGLEWLGRTYYRSKWLYDYAVSVKSRITVNPDTSRNQFTLQLNSVTPEDTALYYCVRGYSSSFDYWGQGTLVTVSS VL: QSALTQPASVSGSPGQSITISCTGTSRDIGTYKFVSWYQQHPDKAPKVLLYEVNKRPSGVSSRFSGSKSGNTASLTISGLQAEDQADYHCCSYAGSGTLLFGGGTKLTVL
230 rfu
